Answer each item with its documented Ki.
Target Under Test: vanilloid receptor 1 (VR1/TRPV1 receptor) (Homo sapiens, UniProt Q8NER1)
Experiment Description: FLIPR functional assay (Ca2+ influx, capsaicin) on the vanilloid receptor 1
Assay type: cell-based
Condition Info: functional (f), capsaicin (Cap) stimulus, Ki from IC50 by Cheng-Prusoff, read-out: (f) Ki (human being) [nM] Cap
Give bare numbers, in nM.

Batch of 8 molecules: report Ki for each.
1. COc1cc(NC(=O)NCc2ccc(C(F)(F)F)nc2N2CCC(C)CC2)ccc1CNS(C)(=O)=O [Example 49]
2. CC(C(=O)NCc1ccc(C(F)(F)F)nc1N1CCC(c2ccccc2)(N(C)C)CC1)c1ccc(CNS(C)(=O)=O)c(F)c1 (stereo not drawn) [Example 34]
3. CC1CCN(c2nc(C(F)(F)F)ccc2CNC(=O)C(C)c2ccc(CNS(C)(=O)=O)c(Cl)c2)CC1 (stereo not drawn) [Example 46]
4. CC1CCN(c2nc(C(F)(F)F)ccc2CNC(=O)C(C)c2ccc(CNS(C)(=O)=O)cc2)CC1 (stereo not drawn) [Example 6]
5. CC(C(=O)NCc1ccc(C(F)(F)F)nc1N1CCCC1)c1ccc(CNS(C)(=O)=O)c(F)c1 (stereo not drawn) [Example 17]
6. NS(=O)(=O)NCc1ccc(NC(=O)NCc2ccc(C(F)(F)F)nc2N2CCCC2)cc1 [Example 57]
7. Cc1cc(NC(=O)NCc2ccc(C(F)(F)F)nc2N2CCCC2)ccc1CNS(C)(=O)=O [Example 52]
8. CCS(=O)(=O)NCc1ccc(C(C)C(=O)NCc2ccc(C(F)(F)F)nc2N2CCCC2)cc1F (stereo not drawn) [Example 54]

Ans:
1: 12; 2: 61; 3: 5; 4: 11; 5: 23; 6: 85; 7: 46; 8: 76
